Assay: Half life in cynomolgus monkey at 0.5 mg/kg by LC-MS/MS analysis
Details: in vivo

STRUCTURE STRING: Cn1ncc(NC(=O)c2nc(-c3c(F)cccc3F)sc2N)c1N1CC[C@@H](N)[C@H](F)CC1
half-life: 1.8 h

====

Assay: Volume of distribution at steady state in mouse at 1 mg/kg, iv by LC-MS/MS analysis
Type: ADME, organism-based
Conditions: in vivo, read-out: Vdss

STRUCTURE STRING: Cn1ncc(NC(=O)c2nc(-c3c(F)cccc3F)sc2N)c1N1CC[C@@H](N)[C@H](F)CC1
Vd, L/kg: 6.8

====

Assay: Volume of distribution at steady state in cynomolgus monkey at 0.5 mg/kg by LC-MS/MS analysis
Details: in vivo, read-out: Vdss

STRUCTURE STRING: Cn1ncc(NC(=O)c2nc(-c3c(F)cccc3F)sc2N)c1N1CC[C@@H](N)[C@H](F)CC1
VALUE UNITS: L/kg
Vd: 5

====

Experiment: Oral bioavailability in mouse at 5 mg/kg by LC-MS/MS analysis by LC-MS/MS analysis
Format: ADME, organism-based
Settings: in vivo

STRUCTURE STRING: Cn1ncc(NC(=O)c2nc(-c3c(F)cccc3F)sc2N)c1N1CC[C@@H](N)[C@H](F)CC1
bioavailability (%): 11

====

Experiment: Half life in Sprague-Dawley rat at 1 mg/kg, iv by LC-MS/MS analysis
Type: ADME, organism-based
Settings: in vivo

STRUCTURE STRING: Cn1ncc(NC(=O)c2nc(-c3c(F)cccc3F)sc2N)c1N1CC[C@@H](N)[C@H](F)CC1
half-life / h: 1.8

====

Experiment: in vivo
Settings: Sprague-Dawley, rat, iv, 1 mg/kg
OBSERVABLE: clearance (mL/min/kg)

COMPOUND: Cn1ncc(NC(=O)c2nc(-c3c(F)cccc3F)sc2N)c1[C@@]12CC[C@@H](N)[C@@H](CC1)O2
REPORTED MEASUREMENT: 3

COMPOUND: Cn1ncc(NC(=O)c2nc(-c3c(F)cccc3F)sc2N)c1N1CC[C@@H](N)[C@H](F)CC1
REPORTED MEASUREMENT: 8

COMPOUND: CO[C@H]1C[C@H](N)CCN(c2c(NC(=O)c3nc(-c4c(F)cccc4F)sc3N)cnn2C)C1
REPORTED MEASUREMENT: 2

COMPOUND: Cn1ncc(NC(=O)c2nc(-c3c(F)cccc3F)sc2N)c1N1CCCC(O)CC1 (centres undefined)
REPORTED MEASUREMENT: 7

====

Test: Volume of distribution at steady state in Sprague-Dawley rat at 1 mg/kg, iv by LC-MS/MS analysis
Format: ADME, organism-based
Settings: in vivo, read-out: Vdss
OBSERVABLE: Vd (L/kg)

STRUCTURE STRING: Cn1ncc(NC(=O)c2nc(-c3c(F)cccc3F)sc2N)c1N1CC[C@@H](N)[C@H](F)CC1
REPORTED MEASUREMENT: 0.9

====

Experiment: in vivo
Details: Sprague-Dawley, rat, po, 5 mg/kg
OBSERVABLE: bioavailability (%)

COMPOUND: CO[C@H]1C[C@H](N)CCN(c2c(NC(=O)c3nc(-c4c(F)cccc4F)sc3N)cnn2C)C1
OBSERVABLE: bioavailability
VALUE UNITS: %
REPORTED MEASUREMENT: 3
--
COMPOUND: Cn1ncc(NC(=O)c2nc(-c3c(F)cccc3F)sc2N)c1N1CC[C@@H](N)[C@H](F)CC1
OBSERVABLE: bioavailability
VALUE UNITS: %
REPORTED MEASUREMENT: 33
--
COMPOUND: Cn1ncc(NC(=O)c2nc(-c3c(F)cccc3F)sc2N)c1[C@@]12CC[C@@H](N)[C@@H](CC1)O2
OBSERVABLE: bioavailability
VALUE UNITS: %
REPORTED MEASUREMENT: 24
--
COMPOUND: Cn1ncc(NC(=O)c2nc(-c3c(F)cccc3F)sc2N)c1N1CCCC(O)CC1 (centres undefined)
OBSERVABLE: bioavailability
VALUE UNITS: %
REPORTED MEASUREMENT: 38

====

Assay: Oral bioavailability in cynomolgus monkey at 1 mg/kg by LC-MS/MS analysis
Assay type: ADME, organism-based, Macaca fascicularis
Settings: in vivo
OBSERVABLE: bioavailability (%)

STRUCTURE STRING: Cn1ncc(NC(=O)c2nc(-c3c(F)cccc3F)sc2N)c1N1CC[C@@H](N)[C@H](F)CC1
REPORTED MEASUREMENT: 35

====

Assay: physchem
Conditions: buffer, pH 6.5
Would you mind labelling by solubility thermodynamic? At or over 60 µM is Yes, under is No.

COMPOUND: CO[C@H]1C[C@H](N)CCN(c2c(NC(=O)c3nc(-c4c(F)cccc4F)sc3N)cnn2C)C1
QUALITATIVE LABEL: Yes

COMPOUND: Cn1ncc(NC(=O)c2nc(-c3c(F)cccc3F)sc2N)c1N1CCC[C@H](NCC(F)F)CC1
QUALITATIVE LABEL: No

COMPOUND: Cn1ncc(NC(=O)c2nc(-c3c(F)cccc3F)sc2N)c1N1CC[C@@H](N)[C@H](F)CC1
QUALITATIVE LABEL: Yes

COMPOUND: Cn1ncc(NC(=O)c2nc(-c3c(F)cccc3F)sc2N)c1N1CCC[C@H](NCC(F)(F)F)CC1
QUALITATIVE LABEL: No

COMPOUND: Cn1ncc(NC(=O)c2nc(-c3c(F)cccc3F)sc2N)c1[C@@]12CC[C@@H](N)[C@@H](CC1)O2
QUALITATIVE LABEL: No

COMPOUND: Cn1ncc(NC(=O)c2nc(-c3c(F)cccc3F)sc2N)c1N1CCCC(O)CC1 (configuration not stated)
QUALITATIVE LABEL: No

COMPOUND: Cn1ncc(NC(=O)c2nc(-c3c(F)cccc3F)sc2N)c1C1CCC(N)C(F)CC1 (configuration not stated)
QUALITATIVE LABEL: Yes

====

Assay: Oral bioavailability in mouse at 100 mg/kg by LC-MS/MS analysis
Type: ADME, organism-based
Conditions: in vivo

STRUCTURE STRING: Cn1ncc(NC(=O)c2nc(-c3c(F)cccc3F)sc2N)c1N1CC[C@@H](N)[C@H](F)CC1
bioavailability / %: 34
